Target: Human immunodeficiency virus type 1 protease (Human immunodeficiency virus 1) (UniProt Q72874)
Test: Inhibition of HIV1 protease at 5 uM
Think of 30% as a floor: if inhibition stands on it or above, it is Y; beneath it, N.

molecule=O=C(N[C@@H](Cc1ccccc1)[C@H](Cc1ccccc1)n1cc(CN2CCC(O)(c3ccc(Cl)cc3)CC2)nn1)OC1CCCC1 class_assignment=N
molecule=O=C(N[C@@H](Cc1ccccc1)[C@H](Cc1ccccc1)n1cc(CN2CCN(c3ccc(C(F)(F)F)cc3)CC2)nn1)OC1CCCC1 class_assignment=Y

Determine whether this molecule has inhibition no lower than 30%: "CC(C)C[C@H](NC(=O)OC1CCCC1)[C@H](Cc1ccccc1)n1cc(CN2CCN(c3cccc(C(F)(F)F)c3)CC2)nn1"
Y

Same lookup for "Cc1ccc(Cl)cc1N1CCN(Cc2cn([C@@H](Cc3ccccc3)[C@H](Cc3ccccc3)NC(=O)c3ccco3)nn2)CC1" , please.
N

What do you get for "CCOC(=O)N1CCN(Cc2cn([C@@H](Cc3ccccc3)[C@H](Cc3ccccc3)NC(=O)OC3CCCC3)nn2)CC1" ?
N

Same read-out for "Cc1ccc(Cl)cc1N1CCN(Cc2cn([C@@H](Cc3ccccc3)[C@H](Cc3ccccc3)NC(=O)Oc3ccccc3)nn2)CC1" ?
Y

// same read-out, input: "Cc1ccc(C)c(N2CCN(Cc3cn([C@@H](Cc4ccccc4)[C@H](Cc4ccccc4)NC(=O)OC4CCCC4)nn3)CC2)c1"
Y

Again, but for "O=C(N[C@@H](Cc1ccccc1)[C@H](Cc1ccccc1)n1cc(CN2CCC(O)(c3cccc(C(F)(F)F)c3)CC2)nn1)OC1CCCC1"
Y

Further, for O=C(N[C@@H](Cc1ccccc1)[C@H](Cc1ccccc1)n1cc(CN2CCN(c3cccc(C(F)(F)F)c3)CC2)nn1)OC1CCCC1 (stereo in doubt; (S,S)-11s) ?
Y

Could you do the same for "O=C(N[C@@H](Cc1ccccc1)[C@H](Cc1ccccc1)n1cc(CN2CCC(Cc3ccccc3)CC2)nn1)OC1CCCC1" , please?
Y

Item: "O=C(N[C@@H](Cc1ccccc1)[C@H](Cc1ccccc1)n1cc(CN2CCN(C(=O)OCc3ccccc3)CC2)nn1)OC1CCCC1"
Y

Would you mind doing "Cc1ccc(Cl)cc1N1CCN(Cc2cn([C@@H](Cc3ccccc3)[C@H](Cc3ccccc3)NC(=O)NC(C)C)nn2)CC1" as well?
N

Then what about the molecule "Cc1ccc(Cl)cc1N1CCN(Cc2cn([C@@H](Cc3ccccc3)[C@H](Cc3ccccc3)NC(=O)C3CCCCC3)nn2)CC1" ?
N

And what about the molecule "Cc1ccc(Cl)cc1N1CCN(Cc2cn([C@@H](Cc3ccccc3)[C@H](Cc3ccccc3)NC(=O)CC3CCCC3)nn2)CC1" ?
N

###

Reported values of inhibition for individual entries
Molecular target: Human immunodeficiency virus type 1 protease (Human immunodeficiency virus 1) (UniProt Q72874)
Experiment: Inhibition of HIV1 protease at 5 uM
The reply should be a number in %, with the unit left off.

compound_structure=Cc1ccc(Cl)cc1N1CCN(Cc2cn([C@@H](Cc3ccccc3)[C@H](Cc3ccccc3)NC(=O)OC3CCC3)nn2)CC1 measured_value=75
compound_structure=O=C(N[C@@H](Cc1ccccc1)[C@H](Cc1ccccc1)n1cc(CN2CCN(c3ccc(F)cc3F)CC2)nn1)OC1CCCC1 measured_value=81
compound_structure=CCN1CCN(Cc2cn([C@@H](Cc3ccccc3)[C@H](Cc3ccccc3)NC(=O)OC3CCCC3)nn2)CC1 measured_value=26

// lookup inhibition for "Cc1ccc(Cl)cc1N1CCN(Cc2cn([C@@H](Cc3ccccc3)[C@H](Cc3ccccc3)NC(=O)C3CCCC3)nn2)CC1"
28
